test-system: T1, recombinant human IL-36R extracellular domain expressed with a C-terminal myc-myc-hexahistidine tag (human, UniProt Q9HB29 20-337)
T1 construct: also called hIL-36R-MMH; hIL-36R.mmH
T1 sequence (Q9HB29 other isoform, or with tags, fused parts or gaps limits assumed): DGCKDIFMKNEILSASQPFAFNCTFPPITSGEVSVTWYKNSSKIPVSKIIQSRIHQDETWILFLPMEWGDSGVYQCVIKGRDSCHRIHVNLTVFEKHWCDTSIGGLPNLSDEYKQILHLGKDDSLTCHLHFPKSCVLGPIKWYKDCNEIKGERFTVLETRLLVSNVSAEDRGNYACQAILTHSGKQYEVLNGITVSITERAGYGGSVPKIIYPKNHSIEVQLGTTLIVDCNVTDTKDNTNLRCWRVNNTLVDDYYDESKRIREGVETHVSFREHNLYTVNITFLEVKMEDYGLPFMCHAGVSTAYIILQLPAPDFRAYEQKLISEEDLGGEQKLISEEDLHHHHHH
experiment: SPR (Biacore 4000), mAb captured on anti-human Fc, 25°C
Description: Equilibrium dissociation constants (KD values) for IL-36R binding to purified anti-IL-36R antibodies were determined using a real-time surface plasmon resonance biosensor using a Biacore 4000 instrument. […] Kinetic association rate constant (kₐ) and dissociation rate constant (kd) were determined by fitting the real-time sensorgrams to a 1:1 binding model using Scrubber 2.0c curve fitting software. […]
Attribute: 100 nM hIL-36R-MMH Bound (RU)
Kindly provide the numeric value in RU only, without the unit symbol.

binder	100 nM hIL-36R-MMH Bound (RU)
H4H14699P2 (antibody, human IgG4 S228P, kappa, V domains shown, Fully human anti-IL-36R antibody) VH: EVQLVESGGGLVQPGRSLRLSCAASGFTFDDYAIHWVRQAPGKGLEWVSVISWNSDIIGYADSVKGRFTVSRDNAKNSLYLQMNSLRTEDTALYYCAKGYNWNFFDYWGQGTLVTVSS VL: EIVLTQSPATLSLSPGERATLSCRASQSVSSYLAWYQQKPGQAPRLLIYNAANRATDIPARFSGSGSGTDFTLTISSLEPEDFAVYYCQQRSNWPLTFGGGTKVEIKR	74

Pending binder:
Supply reported 100 nM hIL-36R-MMH Bound (RU) belonging to this binder: H4H14757P (antibody, human IgG4 S228P, kappa, V domains shown) VH: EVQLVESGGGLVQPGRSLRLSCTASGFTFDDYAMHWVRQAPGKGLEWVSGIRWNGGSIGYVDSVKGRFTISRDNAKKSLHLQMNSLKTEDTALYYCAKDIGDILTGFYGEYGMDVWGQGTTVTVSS VL: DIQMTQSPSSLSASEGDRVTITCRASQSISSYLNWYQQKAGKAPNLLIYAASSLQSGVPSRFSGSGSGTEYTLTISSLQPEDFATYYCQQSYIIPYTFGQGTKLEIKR
94

Just for reference, patent US20200017592A1 is where these values come from.
